- EXPERIMENT: Half life in human
- Type: ADME
EXPERIMENTAL_ENDPOINT: half-life (h)
Return type: number; implicit unit h.

Ask | // half-life lookup, key: C[C@@H]1CC[C@H]2[C@@H](C)C(=O)O[C@@H]3O[C@@]4(C)CC[C@@H]1[C@]32OO4 [ARTEMISININ]
Reply | 2

---

- Test system: Plasmodium falciparum
- EXPERIMENT: Antimalarial activity against Plasmodium falciparum D10
- Format: functional, organism-based
# reported IC50; entries follow
Return type: number; implicit unit nM.

1. C[C@H]1[C@H](N2CCN([C@@H]3O[C@H](CO)[C@H](O)[C@H]3O)CC2)O[C@@H]2O[C@]3(C)CC[C@H]4[C@H](C)CC[C@@H]1[C@@]24OO3 : 0.66
2. CC1(C)OOC2(OCCc3ccccc3)CCCC1C2 (stereo not drawn) : 670
3. CC1(C)OOC2(OCC34CC5CC(CC(C5)C3)C4)CCCC1C2 (stereo not drawn) : 330
4. C[C@H]1[C@H](N2CCN([C@@H]3O[C@H](CO)[C@@H](O)[C@H](O)[C@H]3O)CC2)O[C@@H]2O[C@]3(C)CC[C@H]4[C@H](C)CC[C@@H]1[C@@]24OO3 : 0.87
5. CC1(C)OOC2(OCc3ccccc3)CCCC1C2 (stereo not drawn) : 800

Ask | // IC50 lookup, key: C[C@H]1[C@H](N2CCN([C@@H]3O[C@@H](C)[C@H](O)[C@@H](O)[C@H]3O)CC2)O[C@@H]2O[C@]3(C)CC[C@H]4[C@H](C)CC[C@@H]1[C@@]24OO3
Reply | 0.74

Ask | // IC50 lookup, key: C[C@H]1[C@@H](OCc2ccc(C(=O)N(CCNc3ccnc4cc(Cl)ccc34)CC(=O)NC3CCCCC3)cc2)O[C@@H]2O[C@]3(C)CC[C@H]4[C@H](C)CC[C@@H]1[C@@]24OO3
Reply | 26

Ask | // IC50 lookup, key: CC1(C)OOC2(OCCC34CC5CC(CC(C5)C3)C4)CCCC1C2 (stereo not drawn)
Reply | 580

---

- EXPERIMENT: Selectivity index, ratio of IC50 for HEK293 cells to IC50 for Plasmodium falciparum NF54
- Format: toxicity
- CONDITION_DETAILS: human, read-out: Ratio IC50
EXPERIMENTAL_ENDPOINT: selectivity ratio
The response must contain the number and no unit.

1) CC(C)CCC[C@H](C)C1CC[C@H]2[C@@H]3CC=C4C[C@@H](OC(=O)CCN5CCN([C@H]6O[C@@H]7O[C@]8(C)CC[C@H]9[C@H](C)CC[C@@H]([C@H]6C)[C@@]79OO8)CC5)CC[C@]4(C)[C@H]3CC[C@]12C (some centres not stated) : 3900

Would you kindly look at the next entry?
Ask | // selectivity ratio lookup, key: CC(C)CCC[C@H](C)C1CC[C@H]2[C@@H]3CC=C4C[C@@H](OC(=O)CCCCCN5CCN([C@H]6O[C@@H]7O[C@]8(C)CC[C@H]9[C@H](C)CC[C@@H]([C@H]6C)[C@@]79OO8)CC5)CC[C@]4(C)[C@H]3CC[C@]12C (some centres not stated)
Reply | 1820

---

- System: Plasmodium falciparum
- EXPERIMENT: Antimalarial activity against ART-sensitive Plasmodium falciparum 3D7
- Format: functional, organism-based
EXPERIMENTAL_ENDPOINT: IC50 (µM)
Return type: number; implicit unit µM.

Please review the following examples before continuing.
1. C[C@H]1[C@H](N2CCS(=O)(=O)CC2)O[C@@H]2O[C@]3(C)CC[C@H]4[C@H](C)CC[C@@H]1[C@@]24OO3 : 0.0009
2. C[C@H]1[C@H](N2CCN(c3ccc(S(=O)(=O)N(C)C)c4nonc34)CC2)O[C@@H]2O[C@]3(C)CC[C@H]4[C@H](C)CC[C@@H]1[C@@]24OO3 : 0.348

Would you kindly look at the next entry?
Ask | Can you look up IC50 on Plasmodium falciparum for C[C@H]1[C@@H](OCCCNc2ccc([N+](=O)[O-])c3nonc23)O[C@@H]2O[C@]3(C)CC[C@H]4[C@H](C)CC[C@@H]1[C@@]24OO3 ?
Reply | 0.0226
